Test: chemical genetic growth profiling, strain panel (AID 1159580);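 also: tested at 20 µM; growth read once vehicle control cultures reached saturation at 30 °C; 1 = growth at the plate median or of vehicle wells; lower values mean less growth of the strain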
Conditions: S. cerevisiae deletion strains, growth OD, strain wtn01, active compounds read low
The campaign covered roughly 5,500 compounds. About 2,000 (36%) were called active. Not shown: some 18% with an inconclusive outcome. This is one part of the list.
measured-metric: normalized growth

>  <molecule>
O=C(O)CF

>  <measured-metric>
normalized growth

>  <reported-value>
0.992 (inactive)

$$$$
>  <molecule>
C=C[C@](C)(O)CCC=C(C)C

>  <measured-metric>
normalized growth

>  <reported-value>
1.07 (inactive)

$$$$
>  <molecule>
O=[N+]([O-])c1cc(O)c(O)c([N+](=O)[O-])c1

>  <measured-metric>
normalized growth

>  <reported-value>
0.984 (inactive)

$$$$
>  <molecule>
Nc1nc2ncc(C(=O)O)nc2c(=O)[nH]1

>  <measured-metric>
normalized growth

>  <reported-value>
1.02 (inactive)

$$$$
>  <molecule>
CC1(C)C(C(Cl)Cl)C2(Cl)C(Cl)C(Cl)C1(Cl)C2(Cl)Cl (stereo not given)

>  <measured-metric>
normalized growth

>  <reported-value>
0.966 (inactive)

$$$$
>  <molecule>
CC(=O)NCCCCCC(=O)O

>  <measured-metric>
normalized growth

>  <reported-value>
0.976 (inactive)

$$$$
>  <molecule>
CC(=O)c1c(O)c(C)c(O)c2c1OC1=CC(=O)C(C(C)=O)C(=O)C12C (stereo not given)

>  <measured-metric>
normalized growth

>  <reported-value>
0.841 (active)

$$$$
>  <molecule>
OC[C@@H]1CCCN2CCCC[C@H]12

>  <measured-metric>
normalized growth

>  <reported-value>
1.03 (inactive)

$$$$
>  <molecule>
COc1ccccc1OCCNCC(O)COc1cccc2[nH]c3ccccc3c12 (stereo not given)

>  <measured-metric>
normalized growth

>  <reported-value>
1.01 (inactive)

$$$$
>  <molecule>
CN1C(CC(=O)c2ccccc2)CCCC1CC(O)c1ccccc1 (stereo not given)

>  <measured-metric>
normalized growth

>  <reported-value>
0.954 (inactive)

$$$$
>  <molecule>
Cc1ccc(/C(=C\CN2CCCC2)c2ccccn2)cc1

>  <measured-metric>
normalized growth

>  <reported-value>
0.999 (inactive)

$$$$
>  <molecule>
O=C(O)c1ccccc1Nc1cccc(C(F)(F)F)c1

>  <measured-metric>
normalized growth

>  <reported-value>
0.954 (inactive)

$$$$
>  <molecule>
C=C(C)[C@H]1CC=C(C(=O)O)CC1

>  <measured-metric>
normalized growth

>  <reported-value>
0.904 (inactive)

$$$$
>  <molecule>
O=C(O)CCC(=O)C(=O)O

>  <measured-metric>
normalized growth

>  <reported-value>
1.02 (inactive)

$$$$
>  <molecule>
CC1(C)C(O)CC(O)C2(C)C1CC(O)C1(C)C2CCC2(C)C(c3ccoc3)CC3OC321 (stereo not given)

>  <measured-metric>
normalized growth

>  <reported-value>
0.986 (inactive)

$$$$
>  <molecule>
Cc1ccc2cc3c(ccc4ccccc43)c3c2c1CC3

>  <measured-metric>
normalized growth

>  <reported-value>
0.928 (inactive)

$$$$
>  <molecule>
O=C1C=CC2=C3c4cc(O)c(O)cc4C[C@@]3(O)COC2=C1

>  <measured-metric>
normalized growth

>  <reported-value>
1.03 (inactive)

$$$$
>  <molecule>
CC1(C)C(=O)C=CC2(C)C3CCC4(C)C(c5ccoc5)CC5OC54C3C(O)CC12 (stereo not given)

>  <measured-metric>
normalized growth

>  <reported-value>
0.993 (inactive)

$$$$
>  <molecule>
O=C(CCCCCCCCCCCCC1CCCC1)Nc1ccc(S(=O)(=O)c2ccc(NC(=O)CCCCCCCCCCCCC3CCCC3)cc2)cc1

>  <measured-metric>
normalized growth

>  <reported-value>
0.997 (inactive)

$$$$
>  <molecule>
CC1(C)C(O)CC(O)C2(C)C1CC(=O)C1(C)C2CCC2(C)C(C(=O)O)OC(=O)C3OC321 (stereo not given)

>  <measured-metric>
normalized growth

>  <reported-value>
0.981 (inactive)

$$$$
>  <molecule>
Nc1ccc(S(=O)(=O)Nc2ccc(Cl)nn2)cc1

>  <measured-metric>
normalized growth

>  <reported-value>
1.02 (inactive)

$$$$
>  <molecule>
COC(=O)C[C@H]1C(C)(C)C(=O)[C@@H]2CC3=C4CC(=O)O[C@@H](c5ccoc5)[C@]4(C)CCC3[C@@]1(C)C2=O (stereo not given in full)

>  <measured-metric>
normalized growth

>  <reported-value>
0.981 (inactive)

$$$$
>  <molecule>
O=[N+]([O-])c1cc([As](=O)(O)O)ccc1O

>  <measured-metric>
normalized growth

>  <reported-value>
0.0828 (active)

$$$$
>  <molecule>
Oc1c(Br)cc(Br)c2cccnc12

>  <measured-metric>
normalized growth

>  <reported-value>
0.076 (active)

$$$$
>  <molecule>
O=[N+]([O-])c1ccc(O)c([N+](=O)[O-])c1

>  <measured-metric>
normalized growth

>  <reported-value>
0.755 (active)

$$$$
